Below are IC50 values recorded for AAK1 (Homo sapiens (Human), UniProt Q2M2I8).
QUANTITY_NAME: IC50 (nM)

INSERT INTO assay_data (compound, reported_value) VALUES
  ('NC1(COc2ccc(-c3ccnc(C(F)F)c3)nc2C(F)F)CCCC1', 32.1),
  ('CC(C)(F)CC(C)(N)COc1ccc(-c2ccnc(C(F)F)c2)nc1C(F)F (centres unmarked)', 14.7),
  ('CC(=O)Nc1cc(-c2ccc(OC[C@@](C)(N)CC(C)(O)CO)c(C#N)c2)ccn1 (some centres unmarked)', 5.96),
  ('C=C(C)C[C@](C)(N)COc1cnc(-c2ccnc(NC(=O)OC)c2)cc1C(F)(F)F', 13.8),
  ('CC(=O)Nc1cc(-c2ccc(OC[C@@](C)(N)CC(C)(C)F)c(C(F)F)n2)ccn1', 22.3),
  ('CC(=O)Nc1cc(-c2ccc(OC[C@@](C)(N)CC(C)(C)F)c(C#N)c2)ccn1', 11),
  ('COC(=O)Nc1cc(-c2ccc(OC[C@@](C)(N)CC3CC3)c(C(F)F)n2)ccn1', 10.9),
  ('C=C(C)C[C@](C)(N)COc1ccc(-c2ccnc(NC(C)=O)c2)cc1C(N)=O', 38.6);

The measurements presented in this section are drawn from patent US20240343720A1.
